# target-or-system: RBD (N501Y) spike protein and human ACE2 (Severe acute respiratory syndrome coronavirus 2, UniProt P0DTC2, N501Y)
# Type: binding, SARS-CoV-2; human
# test-settings: 10 µM
experimental-endpoint: inhibitory effect on interaction between RBD (N501Y) spike protein and human ACE2

O=C(OC[C@H]1OC(OC(=O)c2cc(O)c(O)c(OC(=O)c3cc(O)c(O)c(O)c3)c2)[C@H](OC(=O)c2cc(O)c(O)c(OC(=O)c3cc(O)c(O)c(O)c3)c2)[C@@H](OC(=O)c2cc(O)c(O)c(OC(=O)c3cc(O)c(O)c(O)c3)c2)[C@@H]1OC(=O)c1cc(O)c(O)c(OC(=O)c2cc(O)c(O)c(O)c2)c1)c1cc(O)c(O)c(OC(=O)c2cc(O)c(O)c(O)c2)c1 (some centres unmarked) [TA] = up to 50%
O=C(O[C@@H]1O[C@@H]2COC(=O)c3cc(O)c(O)c(O)c3-c3c(cc(O)c(O)c3O)C(=O)O[C@H]([C@H]1O)[C@@H]2O)c1cc(O)c(O)c(O)c1 [corilagin] = up to 50%
O=C(OC[C@H]1O[C@@H](OC(=O)c2cc(O)c(O)c(O)c2)[C@H](O)[C@@H](OC(=O)c2cc(O)c(O)c(O)c2)[C@@H]1O)c1cc(O)c(O)c(O)c1 [TGG, 1,3,6-tri-O-galloyl-β-D-glucose] = up to 50%
